Reference for the values: paper PMC5720355

# tgt: human constitutive 20S proteasome (Casp-L, β1) (Homo sapiens, UniProt P25787+P60900)
# experimental protocol: Proteasome activity assay, 20S caspase-like
# condition: read-out: EC50, caspase-like (Casp-L) activity; Z-LLE-AMC
metric: pEC50
API: returns pEC50 as number; meaning -log10 of concentration in mol/L.

Data request: Recorded pEC50 for O=S(=O)(O)CCCCN1c2ccccc2Sc2ccccc21 [compound 2] with human constitutive 20S proteasome (Casp-L, β1) (Homo sapiens, UniProt P25787+P60900), please?
Data returned: 5.32
